TARGET_OR_SYSTEM: human sphingosine-1-phosphate receptor 1 (S1P1) (Homo sapiens)
METHOD: Inhibition of cAMP production (HTRF cAMP HiRange), S1P1 CHO-K1 cells
Assay type: cell-based
CONDITION_DESCRIPTION: inhibition of cAMP production; potency; read-out: hS1P1 CAMP pEC50 (converted)
Sequence (P21453 whole entry): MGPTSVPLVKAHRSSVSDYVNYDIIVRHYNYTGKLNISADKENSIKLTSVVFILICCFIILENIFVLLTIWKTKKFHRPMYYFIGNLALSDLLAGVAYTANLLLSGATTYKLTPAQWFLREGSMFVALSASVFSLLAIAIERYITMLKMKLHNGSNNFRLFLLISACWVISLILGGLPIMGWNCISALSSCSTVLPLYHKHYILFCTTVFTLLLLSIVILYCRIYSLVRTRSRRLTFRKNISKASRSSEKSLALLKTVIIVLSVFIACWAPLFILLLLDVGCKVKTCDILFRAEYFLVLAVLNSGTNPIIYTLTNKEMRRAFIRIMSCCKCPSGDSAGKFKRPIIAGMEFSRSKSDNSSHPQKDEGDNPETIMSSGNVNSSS
Recorded EC50 values for a group of compounds are listed next.

C=CCn1nc2ccc(-c3nc(-c4ccccc4)no3)cc2n1 = > 316 nM
CC(C)Oc1ccc(-c2noc(-c3ccc4c(c3)nnn4C(C)C)n2)cc1C(F)(F)F = < 316 nM
CCCCC1(CCCC)CC(=O)c2cc(-c3nc(-c4cccnc4)no3)ccc2O1 = > 316 nM
C=CCNc1ccc(-c2nc(-c3ccc4[nH]ccc4c3)no2)cc1C#N = < 316 nM
Cc1ccc(-c2nc(-c3ccc4c(c3)nnn4C3CCCC3)no2)cc1 = > 316 nM
O=C1CC2(CCCCC2)Oc2ccc(-c3nc(-c4ccncc4)no3)cc21 = > 316 nM

Reported EC50 of CCC1(CC)CC(=O)c2cc(-c3nsc(-c4ccc5c(c4)nnn5C(C)C)n3)ccc2O1 : > 316 nM

So, CCC1(CC)CC(=O)c2cc(-c3nc(-c4ccccc4O)no3)ccc2O1 ? Its EC50 was > 316 nM

// EC50 lookup, compound = COC(=O)CCn1nnc2cc(-c3noc(-c4ccccc4Br)n3)ccc21 , result: > 316 nM

Record summary for N#Cc1cc(-c2nc(-c3ccc4c(c3)CC(=O)N4)no2)ccc1NCC1CC1 : reported EC50 = < 316 nM

CC(C)n1nnc2cc(-c3ncc(-c4ccccc4Br)s3)ccc21 has a reported EC50 of > 316 nM

Reported EC50 ( Brc1ccccc1-c1nc(-c2ccc3c(c2)nnn3Cc2ccccn2)no1 ) = > 316 nM

The measured EC50 associated with CC(C)n1nnc2cc(-c3nc(-c4cccnc4)no3)ccc21 reads > 316 nM

// EC50 value for Cc1ccc(-c2nc(-c3ccc4c(c3)nnn4C(C)C)no2)cn1 : > 316 nM

Value of EC50 reported for the compound Cc1ccccc1C(C)c1noc(-c2ccc3c(c2)nnn3CC(C)C)n1 (stereo not shown) is > 316 nM

* * *

TARGET_OR_SYSTEM: human sphingosine-1-phosphate receptor 1 (S1P1) (Homo sapiens, UniProt P21453)
METHOD: Inhibition of cAMP production (HTRF cAMP HiRange), S1P1 CHO-K1 cells
Format: cell-based
CONDITION_DESCRIPTION: inhibition of cAMP production; potency; read-out: hS1P1 CAMP pEC50 (converted)
QUANTITY: EC50

C=CCNc1ccc(-c2nc(-c3ccc4c(c3)CC(=O)N4)no2)cc1C#N [Compound 224] = < 0.316 µM

Briefly, EC50 measured for N#Cc1cc(-c2nnc(-c3ccc4[nH]cnc4c3)o2)ccc1NCC(F)F [Compound 359] : < 0.316 µM

GET /value?item= C=CCNc1ccc(-c2nc(-c3ccc4[nH]cnc4c3)no2)cc1C#N [Compound 177] &field=EC50 returns < 0.316 µM

* * *

Property: Emax; scope: individual compounds
TARGET_OR_SYSTEM: UniProt:P21453
METHOD: β-Arrestin2 recruitment assay (PathHunter), S1P1 CHO-K1 cells
Assay type: cell-based
CONDITION_DESCRIPTION: CHO-K1; efficacy normalized to maximum efficacy of fingolimod; read-out: hS1P1 B-arrestin2 SPAN
Sequence (P21453 whole entry): as above
Sequence (P32121 whole entry partner): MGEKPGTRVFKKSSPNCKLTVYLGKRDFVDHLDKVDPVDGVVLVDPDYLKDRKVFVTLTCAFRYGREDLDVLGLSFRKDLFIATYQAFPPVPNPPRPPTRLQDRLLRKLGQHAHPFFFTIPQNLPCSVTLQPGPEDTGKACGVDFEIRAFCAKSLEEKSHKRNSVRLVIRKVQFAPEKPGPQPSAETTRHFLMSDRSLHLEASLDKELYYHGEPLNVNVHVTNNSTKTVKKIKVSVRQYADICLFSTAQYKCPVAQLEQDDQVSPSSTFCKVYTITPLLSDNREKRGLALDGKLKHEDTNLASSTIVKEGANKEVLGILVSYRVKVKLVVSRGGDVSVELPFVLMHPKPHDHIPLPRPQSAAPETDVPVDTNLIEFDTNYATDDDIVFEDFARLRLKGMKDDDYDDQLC

Recorded Emax, per entry:
Cn1cnc2cc(-c3nnc(-c4ccc(NCC(F)F)c(C#N)c4)o3)ccc21 = < 75%
Cc1ccncc1-c1noc(-c2ccc3ccsc3n2)n1 = < 75%
O=C1CCc2cc(-c3nc(-c4cccnc4)no3)ccc2N1 = < 75%
CCC1(CC)CC(=O)c2cc(-c3ncc(-c4ccnc(O)c4)cn3)ccc2O1 = < 75%

Emax reported for this compound COc1ccccc1-c1nc(-c2ccc3c(ccn3C(C)C)c2)ns1 : < 75%

Entry CC(C)(CO)n1nnc2cc(-c3noc(-c4ccncc4C(F)(F)F)n3)ccc21 — recorded Emax = < 75%

Looking up CC(C)n1nnc2cc(-c3noc(-c4ccccc4N(C)C)n3)ccc21 , I see its Emax listed as > 75%

Kindly note the recorded Emax for COc1ccccc1-c1csc(-c2cnc3c(ccn3C(C)C)c2)n1 , which is < 75%

Record Cc1nc2cc(-c3nnc(-c4ccc(NCC(F)F)c(C#N)c4)o3)ccc2[nH]1 , field Emax: < 75%

compound COc1ccc(-c2nc(-c3ccc4c(c3)nnn4C(C)(C)CO)no2)c(C)c1 , Emax observed: > 75%
